Where do the numbers come from? From paper PMC12095705.

measuredTarget: BgaP β-galactosidase
Construct: recombinant full-length, 675 amino acids (GenBank XED97098)
experimentalProtocol: inhibition of ONPG hydrolysis by purified enzyme, […] °C, pH […]; Lineweaver-Burk
Assay type: biochemical, Paenibacillus sp. 8
Exercise: state measured pKi for each of the molecules provided.
# pKi: negative log10 of molar concentration; output just the value

Incoming: Dear colleague, I am looking for the recorded pKi of the following molecule: OC[C@H]1OC(O)[C@H](O)[C@@H](O)[C@@H]1O (some centres unmarked)
Outgoing: 1.56

Incoming: Dear colleague, I am looking for the recorded pKi of the following molecule: OC[C@H]1OC(O)[C@H](O)[C@@H](O)[C@H]1O (some centres unmarked)
Outgoing: 2.16
